B1: tRNA (parent)
chain: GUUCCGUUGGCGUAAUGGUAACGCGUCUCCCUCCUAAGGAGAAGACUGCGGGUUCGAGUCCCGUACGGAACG

variants of: B1; experiment: yeast fitness relative to wild type (ratio to wild type); higher = fitter; tRNA-Arg(CCU), competitive growth, 37 C, YPD
Fewer inactive variants are shown than the library holds.
Could you please report measured yeast fitness for the items listed next?

Items follow; give yeast fitness for each.
1. A14C G23C A36U
2. C4A G9C C30A G39A C61G
3. C5G C31U
4. G6A U54G

Output:
[0.68, "≤ 0.5", 0.867, 0.611]

Items follow; give yeast fitness for each.
1. G6A C24U C31A A43C G58C U64G
2. A42U G52A G67U
3. G18C C31G G44C
4. U3C G9A A15U C30A A42G
5. G6C C11G C33U

Output:
1: ≤ 0.5; 2: 0.783; 3: 0.658; 4: 0.506; 5: ≤ 0.5

meta.source: the RNAGym collection of RNA variant scans (doi:10.1126/science.aae0568)
